tested on: MTT (mouse pheochromocytoma); assay: IC50 of cell viability (ATP content); settings: (24 or 48 h)
Structures can show the parent of a compound that is named as a salt.
Below, each of the compounds is paired with its reported IC50 of cell viability value.
quantity: IC50 of cell viability

{"columns": ["compound", "study_target", "quantity", "result"],
 "data": [
  ["CCOCC(O)COc1ccc(NC(=O)CC[S+](C)C)cc1 (centres undefined) [SUPLATAST TOSILATE]", "MTT (mouse pheochromocytoma)", "IC50 of cell viability", "> 46 µM"],
  ["Nc1c(Cl)c(Cl)c(Cl)c(Cl)c1Cl [Pentachloroaniline]", "MTT (mouse pheochromocytoma)", "IC50 of cell viability", "> 46 µM"],
  ["COc1ccc(-c2nc3ccc(C4=C(C)CC(=O)NN4)cc3[nH]2)cc1 [PIMOBENDAN]", "MTT (mouse pheochromocytoma)", "IC50 of cell viability", "> 46 µM"],
  ["COc1ccc([S+](=O)([O-])Nc2nnc(CC(C)C)s2)cc1 [GLYSOBUZOLUM]", "MTT (mouse pheochromocytoma)", "IC50 of cell viability", "> 46 µM"],
  ["O=C(/C=C/c1cccc(F)c1)NC1CC1 [Cinflumide]", "MTT (mouse pheochromocytoma)", "IC50 of cell viability", "> 46 µM"],
  ["CCc1cc(Cl)c(OC)c(C(=O)NC[C@@H]2CCCN2CC)c1O [Eticlopride hydrochloride]", "MTT (mouse pheochromocytoma)", "IC50 of cell viability", "> 46 µM"],
  ["C[N+](C)(CCCCCC[N+](C)(C)C1c2ccccc2-c2ccccc21)C1c2ccccc2-c2ccccc21 [Hexafluorenium dibromide]", "MTT (mouse pheochromocytoma)", "IC50 of cell viability", "> 46 µM"],
  ["O=C(O)Cc1cccc2ccccc12 [1-Naphthalene acetic acid]", "MTT (mouse pheochromocytoma)", "IC50 of cell viability", "> 46 µM"],
  ["CN(C)CC/C=C1\\c2ccccc2Sc2ccc(Cl)cc21 [Chlorprothixene]", "MTT (mouse pheochromocytoma)", "IC50 of cell viability", "> 46 µM"],
  ["CC[C@@]12CCCN3CCc4c(n(c5ccccc45)[C@](O)(C(=O)OC)C1)C32 (some centres undefined) [VINCAMINE]", "MTT (mouse pheochromocytoma)", "IC50 of cell viability", "> 46 µM"],
  ["COc1nc(N)nc2c1ncn2C1OC(CO)C(O)C1O (centres undefined) [NELARABINE]", "MTT (mouse pheochromocytoma)", "IC50 of cell viability", "> 46 µM"],
  ["CC(C)(S)C(=O)NC(CS)C(=O)O (centres undefined) [Bucillamine]", "MTT (mouse pheochromocytoma)", "IC50 of cell viability", "> 46 µM"],
  ["CC(C)(C)C(=O)OCOP(=O)(COCCn1cnc2c(N)ncnc21)OCOC(=O)C(C)(C)C [ADEFOVIR DIPIVOXIL]", "MTT (mouse pheochromocytoma)", "IC50 of cell viability", "> 46 µM"],
  ["CC(=O)[C@]1(O)Cc2c(O)c3c(c(O)c2[C@@H](O[C@H]2C[C@H](N)[C@H](O)[C@H](C)O2)C1)C(=O)c1ccccc1C3=O [IDARUBICIN HYDROCHLORIDE]", "MTT (mouse pheochromocytoma)", "IC50 of cell viability", "> 46 µM"],
  ["COc1ccc2[nH]c([S+]([O-])Cc3ncc(C)c(OC)c3C)nc2c1 (centres undefined) [Omeprazole]", "MTT (mouse pheochromocytoma)", "IC50 of cell viability", "> 46 µM"],
  ["CC(C)(O)C1C2OC(=O)C1C1(O)CC3OC34C(=O)OC2C14C (centres undefined) [PICROTOXIN]", "MTT (mouse pheochromocytoma)", "IC50 of cell viability", "> 46 µM"],
  ["CCN(CC)CCc1nc(-c2ccccc2)no1.O=C(O)CC(O)(CC(=O)O)C(=O)O [Oxalamine citrate salt]", "MTT (mouse pheochromocytoma)", "IC50 of cell viability", "> 46 µM"],
  ["CCCC[C@@H](CC)COC(=O)C[C@H](C(=O)OC[C@H](CC)CCCC)S(=O)(=O)[O-] [Dioctyl sulfosuccinate sodium salt]", "MTT (mouse pheochromocytoma)", "IC50 of cell viability", "> 46 µM"],
  ["F/C(COc1ccc2c(c1)[nH]c1ccccc12)=C1/CN2CCC1CC2", "MTT (mouse pheochromocytoma)", "IC50 of cell viability", "> 46 µM"],
  ["C=CCc1ccccc1OCC(O)CNC(C)C (centres undefined) [ALPRENOLOL]", "MTT (mouse pheochromocytoma)", "IC50 of cell viability", "> 46 µM"],
  ["C1CN\\C(N1)=C/C2=CC=CC3=C2C=CC=C3 [Nephazoline]", "MTT (mouse pheochromocytoma)", "IC50 of cell viability", "> 46 µM"],
  ["[Na+].[Na+].CO[C@@]1(NC(=O)[C@H](C([O-])=O)C2=CC=C(O)C=C2)[C@@H]3OC\\C(=C(/N3C1=O)C([O-])=O)CSC4=NN=N[N]4C [Moxalactam disodium salt]", "MTT (mouse pheochromocytoma)", "IC50 of cell viability", "> 46 µM"],
  ["CC([C@H](O)c1ccccc1)N(C)C (stereo partly drawn) [N-METHYL (-)EPHEDRINE]", "MTT (mouse pheochromocytoma)", "IC50 of cell viability", "> 46 µM"],
  ["Cn1c(CCCC(=O)O)nc2cc(N(CCCl)CCCl)ccc21 [BENDAMUSTINUM]", "MTT (mouse pheochromocytoma)", "IC50 of cell viability", "> 46 µM"],
  ["Cc1ccc(Nc2nccc(N(C)c3ccc4c(C)n(C)nc4c3)n2)cc1[S+](N)(=O)[O-] [Pazopanib]", "MTT (mouse pheochromocytoma)", "IC50 of cell viability", "> 46 µM"],
  ["CCCCCCCCCCCC(=O)[O][Sn]([CH2]CCC)([CH2]CCC)[O]C(=O)CCCCCCCCCCC [DIBUTYLTIN DILAURATE]", "MTT (mouse pheochromocytoma)", "IC50 of cell viability", "> 46 µM"],
  ["O.O.O.[Na+].[Na+].O[Hg]C1=C2OC/3=C/C(=O)/C(=C\\C3=C(\\C2=CC(=C1[O-])Br)C4=C(C=CC=C4)C([O-])=O)Br [Merbromin]", "MTT (mouse pheochromocytoma)", "IC50 of cell viability", "> 46 µM"],
  ["Cc1c(N)nc([C@@H](CC(N)=O)NC[C@H](N)C(N)=O)nc1C(=O)N[C@H](C(=O)N[C@H](C)[C@H](O)[C@H](C)C(=O)N[C@@H](C(=O)NCCc1nc(-c2nc(C(=O)NCCC[S+](C)C)cs2)cs1)[C@H](C)O)[C@H](O[C@@H]1O[C@@H](CO)[C@@H](O)[C@H](O)[C@@H]1O[C@H]1O[C@H](CO)[C@H](O)[C@H](OC(N)=O)[C@@H]1O)c1c[nH]cn1 [Bleomycin Sulfate]", "MTT (mouse pheochromocytoma)", "IC50 of cell viability", "> 46 µM"],
  ["COc1cc(N[S+](=O)([O-])c2ccc(N)cc2)nc(C)n1 [SULFAMETOMIDINE]", "MTT (mouse pheochromocytoma)", "IC50 of cell viability", "> 46 µM"]
]}
